Source: patent US20220265819A1

Molecular target: T1, full length recombinant human 2N4R tau (amino acids 1-441) (human, UniProt P10636 1-758)
T1 construct: Bought (rPeptide); recombinant, non-phosphorylated; also called recombinant tau
T1 sequence (P10636 other isoform, or with tags, fused parts or gaps limits assumed): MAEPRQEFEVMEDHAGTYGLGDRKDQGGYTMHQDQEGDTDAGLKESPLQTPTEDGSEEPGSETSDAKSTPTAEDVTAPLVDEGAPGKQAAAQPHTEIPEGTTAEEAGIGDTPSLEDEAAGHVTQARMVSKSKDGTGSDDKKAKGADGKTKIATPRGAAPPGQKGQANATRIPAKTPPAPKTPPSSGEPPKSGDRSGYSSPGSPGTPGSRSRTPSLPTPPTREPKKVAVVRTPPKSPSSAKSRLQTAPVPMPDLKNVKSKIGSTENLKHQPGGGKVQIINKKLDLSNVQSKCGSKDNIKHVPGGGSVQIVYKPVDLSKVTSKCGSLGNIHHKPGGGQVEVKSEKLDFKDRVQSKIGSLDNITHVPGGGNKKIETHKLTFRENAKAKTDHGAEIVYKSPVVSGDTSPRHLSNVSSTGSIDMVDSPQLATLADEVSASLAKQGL
Assay: SPR Biacore MCK, purified IgG on Protein A, tau analyte
Reported Relative KD values for the following binders.

Binder: Clone 31 (VH5Vκ2), humanised variant of clone #28, human IgG1 (antibody, V domains shown, also called VH5VK2; VH5Vk2) VH: QVQLQESGPGLVKPSETLSLTCTVSGFSLNNYDMSWVRQAPGKGLEWIGTVSTTYRRYYASWAKGRFTISRDNSKNTLDLQMTSLTAEDTATYFCAASGIWGRGTLVTVSS VL: AQVLTQSPSTLSASVGDRVTITCQSSQRVYSNYLAWYQQKPGQPPKRLIFLASTLESGVPSRFSGSGSGTEFTLTISSLQPDDFATYYCAGTYTGSIWAFGGGTKVEIK
Relative KD [fold vs VH0VK0]: 1.4
//
Binder: Clone 32 (VH5Vκ4), humanised variant of clone #28, human IgG1 (antibody, V domains shown, also called VH5VK4; VH5Vk4) VH: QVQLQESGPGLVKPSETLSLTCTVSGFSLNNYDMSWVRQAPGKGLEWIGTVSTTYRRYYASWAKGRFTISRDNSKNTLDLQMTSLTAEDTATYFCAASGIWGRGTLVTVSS VL: DIQMTQSPSTLSASVGDRVTITCQSSQRVYSNYLAWYQQKPGQPPKRLIFLASTLESGVPSRFSGSGSGTEFTLTISSLQPDDFATYYCAGTYTGSIWAFGGGTKVEIK
Relative KD [fold vs VH0VK0]: 1.35
